Test system: 521955-158-R2-J5-PDC complex spheroid viability;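 further: spheroids exposed to agents for one week before reading; 100% = DMSO vehicle control viability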
Assay: Anticancer human tumor 521955-158-R2-J5-PDC patient-derived pancreatic carcinoma cell line growth inhibition [GQUAD]; active means viability on the fitted dose curve at most 10% of control; inactive means the rest
Conditions: second compound 3.16 µM; first compound 3.16 µM
Outcome codes: label 1 for active, label 0 for inactive

INSERT INTO results (compound, experimental_target, group_label) VALUES
  ('COc1ccc([C@@H](O)c2cc(-c3ncnc4cc(N5CCOCC5)ccc34)c(F)cc2Cl)nn1 + CN(C)c1ccc(Nc2c3ccc(NC(=O)CCN4CCCC4)cc3nc3cc(NC(=O)CCN4CCCC4)ccc23)cc1', '521955-158-R2-J5-PDC complex spheroid viability', 'label 0'),
  ('CC1COCCN1c1cc(C2(O)CC3CCC(C2)O3)c2cnn(-c3ccn[nH]3)c2n1 (stereo unspecified) + Cc1cnc(CNC(=O)c2c(=O)c3ccc(N4CCCN(C)CC4)nc3n3c2sc2ccccc23)cn1', '521955-158-R2-J5-PDC complex spheroid viability', 'label 1'),
  ('C=CCn1c(=O)c2cnc(Nc3ccc(N4CCN(C)CC4)cc3)nc2n1-c1cccc(C(C)(C)O)n1 + Cc1[nH]c2ccc(F)cc2c1-c1nc2c3cccnc3c3ncccc3c2[nH]1', '521955-158-R2-J5-PDC complex spheroid viability', 'label 0'),
  ('O=c1[nH]cc(F)c(=O)[nH]1 + CN(C)c1ccc(Nc2c3ccc(NC(=O)CCN4CCCC4)cc3nc3cc(NC(=O)CCN4CCCC4)ccc23)cc1', '521955-158-R2-J5-PDC complex spheroid viability', 'label 0'),
  ('CC1COCCN1c1cc(C2(S(C)(=N)=O)CC2)nc(-c2ccnc3[nH]ccc23)n1 (stereo unspecified) + CN(C)c1ccc(Nc2c3ccc(NC(=O)CCN4CCCC4)cc3nc3cc(NC(=O)CCN4CCCC4)ccc23)cc1', '521955-158-R2-J5-PDC complex spheroid viability', 'label 0'),
  ('CC(C)(O)C1CCC(Nc2ccc3ncc(-c4cccc(C(F)(F)F)c4)n3n2)CC1 (stereo unspecified) + Cc1cnc(CNC(=O)c2c(=O)c3ccc(N4CCCN(C)CC4)nc3n3c2sc2ccccc23)cn1', '521955-158-R2-J5-PDC complex spheroid viability', 'label 1'),
  ('CC(C)n1c(=O)n(C)c2cnc3cc(F)c(-c4ccc(OCCCN5CCCCC5)nc4)cc3c21 + Cc1[nH]c2ccc(F)cc2c1-c1nc2c3cccnc3c3ncccc3c2[nH]1', '521955-158-R2-J5-PDC complex spheroid viability', 'label 0'),
  ('Nc1ccn(C2OC(CO)C(O)C2(F)F)c(=O)n1 (stereo unspecified) + Cc1cnc(CNC(=O)c2c(=O)c3ccc(N4CCCN(C)CC4)nc3n3c2sc2ccccc23)cn1', '521955-158-R2-J5-PDC complex spheroid viability', 'label 1'),
  ('CC1COCCN1c1cc(-c2ccnn2C)c2ccnc(-c3ccn[nH]3)c2n1 (stereo unspecified) + Cc1cnc(CNC(=O)c2c(=O)c3ccc(N4CCCN(C)CC4)nc3n3c2sc2ccccc23)cn1', '521955-158-R2-J5-PDC complex spheroid viability', 'label 1'),
  ('COc1cccc2c1C(=O)c1c(O)c3c(c(O)c1C2=O)CC(O)(C(=O)CO)CC3OC1CC(N)C(O)C(C)O1 (stereo unspecified) + Cc1[nH]c2ccc(F)cc2c1-c1nc2c3cccnc3c3ncccc3c2[nH]1', '521955-158-R2-J5-PDC complex spheroid viability', 'label 1'),
  ('CC1COCCN1c1cc(C2(S(C)(=N)=O)CC2)nc(-c2ccnc3[nH]ccc23)n1 (stereo unspecified) + Cc1[nH]c2ccc(F)cc2c1-c1nc2c3cccnc3c3ncccc3c2[nH]1', '521955-158-R2-J5-PDC complex spheroid viability', 'label 0');
